// provenance: ChEMBL document CHEMBL4052773

PROCEDURE TEXT: Ratio of drug level in brain to plasma in rat at 10 mg/kg, iv measured at 2 hrs post dose
Format: ADME, organism-based
MEASUREMENT CONDITIONS: brain and plasma, read-out: BPR
READOUT LABEL: Kp at 2 h
Note: the reply should be a number with no unit written.

Sample `CC(C)c1cc(CN2Cc3ccccc3S2(=O)=O)nn1-c1ccc(F)cc1` ; Kp at 2 h observed: 1.28

----------
PROCEDURE TEXT: Cmax in rat at 10 mg/kg, po
Format: ADME, organism-based
Parameters: dose 10 mg/kg, route oral
MEASUREMENT CONDITIONS: in vivo
READOUT LABEL: Cmax (ng/mL)
State the answer as a number, implicitly in ng/mL.

Short answer for `CC(C)c1cc(CN2Cc3ccccc3S2(=O)=O)nn1-c1ccc(F)cc1` : Cmax was 100
